Cited source: patent US20240400512A1

Assay: Metabolic stability in human liver microsomes
Type: in vitro ADME
Settings: NADPH, 37° C.
endpoint: t1/2 (min)

{"compound": "COc1ccc2c(c1)[C@]13CCCC[C@@H]1[C@H](C2)N(C)CC3 [dextromethorphan, reference compound]", "endpoint": "t1/2", "testValue": 25.3}
{"compound": "CC[N+](C)(C)CCc1c[nH]c2cccc(OC(C)=O)c12.[I-] [reference compound E, 4-OAc-Dimethylethyltryptamine iodide, reference compound]", "endpoint": "t1/2", "testValue": 29.9}
{"compound": "C[N+](C)(C)CCc1c[nH]c2cccc(O)c12.[I-] [reference compound A, 4-OH-Trimethyltryptamine iodide, reference compound]", "endpoint": "t1/2", "testValue": 204}
{"compound": "CC(=O)Oc1cccc2[nH]cc(CC[N+](C)(C)C)c12.[I-] [reference compound D, 4-OAc-Trimethyltryptamine iodide, reference compound]", "endpoint": "t1/2", "testValue": 48.9}
{"compound": "CC[N+](C)(C)CCc1c[nH]c2cccc(O)c12.[I-] [reference compound B, 4-OH-Dimethylethyltryptamine iodide, reference compound]", "endpoint": "t1/2", "testValue": 256}
{"compound": "CCC[N+](C)(C)CCc1c[nH]c2cccc(OC(C)=O)c12.[I-] [reference compound F, 4-OAc-Dimethylpropyltryptamine iodide, reference compound]", "endpoint": "t1/2", "testValue": 22.1}
